test: NCI Yeast Anticancer Drug Screen. Data for the rad50 strain (AID 155);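 note: 0% = growth of vehicle-only cultures of the same strain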; settings: S. cerevisiae rad50 strain growth inhibition; at 33.0 µM; active compounds read high
This is part of a sample that, as a whole, favours compounds with a hit. Of some 79,000 tested, about 15% had one in any assay.
quantity-kind: growth inhibition (%)
Give bare numbers, in %.

substance_smiles=COP(=O)(OC)/C(=C\C1=CN(C(c2ccccc2)(c2ccccc2)c2ccccc2)CN1)NC=O measured_value=73
substance_smiles=CC(C)(C)c1nc2c(o1)C(=O)c1ccccc1C2=O measured_value=90

Hey, can you go through the list below and give me growth inhibition for every item?
1. Cc1ccc(CSC(N)=Nc2ccccc2)cc1C
2. CCOC(=O)c1cnc2cc(C(F)(F)F)ccc2c1N=[N+]=[N-]
3. CCC(=O)Oc1c(Cl)cc(Cl)c2ccccc12
4. CC(C)/C(Cl)=N\OC(=O)Nc1ccc(F)cc1

1. 22
2. 50
3. 5
4. 23

----------
test: NCI Yeast Anticancer Drug Screen. Data for the rad18 strain (AID 177); settings: S. cerevisiae rad18 mutant growth inhibition; at 1.2 µM; active compounds read high
Compounds without any hit were thinned out: in the full panel of roughly 79,000, 15% have a hit.
quantity-kind: growth inhibition (%)
One number for each entry, in %.

The examples below pair each entry with its known result.
molecule=C[C@H](CCC(=O)NN)[C@H]1CC[C@H]2[C@@H]3CC[C@@H]4C[C@H](O)CC[C@]4(C)[C@H]3CC[C@]12C measured_value=-5
molecule=CNC(=O)OCc1c(COC(=O)NC)c(-c2ccc(-c3ccccc3)cc2)n(C)c1C measured_value=-25
molecule="CCOC(=O)[C@H]1Nc2ccccc2C2c3ccccc3CC21 (stereo not given in full)" measured_value=-31
molecule=CCCc1cc(C(=O)OCC)cc(CCC)c1O measured_value=-6
molecule=CC(=O)N/N=C/C(C)(C)C(C)(C)/C=N/NC(C)=O measured_value=-10

I'm hoping you can list growth inhibition for every molecule here, please.
1. Cc1c(C(Cc2ccccc2N(C)C(=O)/C=C\C(=O)O)c2c[nH]c3ccccc23)c2ccccc2n1C (stereo not given)
2. O=C(COC(=O)c1cc(O)c(O)c(O)c1)c1ccc(-c2ccccc2)cc1
3. NNC(=O)CCc1ccc2ccc3ccccc3c2c1
4. CN=C(N)N/N=C/c1ccc2c(c1)Cc1ccccc1-2
5. COP(=O)(OC)/C(=C\C1=CN(C(c2ccccc2)(c2ccccc2)c2ccccc2)CN1)NC=O
6. COc1ccc2sc3cccc(NCCN(C)C)c3c(=O)c2c1
7. Cc1ccc(S(=O)(=O)NC(=O)NC2=NC(C)(C)N(c3ccc(Cl)c(Cl)c3)C(N)=N2)cc1
8. C=C1CC(Cn2cc(Br)c(=O)[nH]c2=O)(c2ccc(-c3ccccc3)cc2)OC1=O (stereo not given)

-14
-1
17
-5
-7
0
-1
4

----------
assay: NCI Yeast Anticancer Drug Screen. Data for the mgt1 strain (AID 153); details: S. cerevisiae mgt1 mutant growth inhibition; at 33.0 µM; active compounds read high
About 79,000 compounds went through this panel and 15% of them were active in at least one assay; those are over-represented in the sample as a whole.
Assign Satisfied whenever growth inhibition does not fall below 90%; assign Not satisfied whenever it does.

compound=C[Si](C)(C)CNC(=O)OCc1ccccc1 category="Not satisfied"
compound="CCCN(CCC)CC(O)c1cc(-c2ccc(Cl)cc2)nc2c(C)c(Cl)ccc12 (stereo not drawn)" category=Satisfied
compound=O=[N+]([O-])c1cc2no[n+]([O-])c2cc1N1CCCCC1 category=Satisfied
compound=Oc1cccc2c(Cl)ccnc12 category=Satisfied
compound=O=C(Nc1ccccc1)OCCc1ccc(Cl)c(Cl)c1 category="Not satisfied"

Test whether the compound O=CNc1ccc2c(c1)C(=O)c1ccccc1-2 records growth inhibition of 90% or higher.
Not satisfied

For this compound, is measured growth inhibition 90% or higher? CC1=NN(c2cccc(Cl)c2)C(=O)C1
Not satisfied

----------
assay: NCI Yeast Anticancer Drug Screen. Data for the sgs1 strain (AID 173);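 note: 0% = growth of vehicle-only control cultures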; details: S. cerevisiae sgs1 mutant, at 11.0 µM, active compounds read high
The panel holds about 79,000 compounds, 15% with a hit somewhere; the sample as a whole holds those more often.
Outcome label depends on growth inhibition relative to 80%: at/above gives t, below gives f.

Is reported growth inhibition greater than or equal to 80% here: CC1=C(SCCO)C(=O)c2ccccc2C1=O
f

In plain terms: is recorded growth inhibition at least 80% for O=[n+]1c2ccc(Cl)cc2n([O-])c2ccc(Cl)cc21 ?
f

For this molecule, is measured growth inhibition 80% or higher? CCCc1cc(C(=O)OCC)cc(CCC)c1O
f

Check the entry COc1cc2c3c(cccc3c1)C(=O)N(CCN(C)C)C2=O : does growth inhibition equal or exceed 80%?
f

Reported growth inhibition reaches at least 80% for O=C(N=Nc1cc(Cl)ccc1Cl)NNc1cc(Cl)ccc1Cl ?
f

Given CSc1nc(=S)[nH]c2c1c(C)nn2-c1ccccc1 , state whether its growth inhibition is at least 80%.
f

growth inhibition >= 80% for O=C1NC(=O)C2C3C=CC(C3)C12 (stereo unspecified) ?
t

----------
assay: NCI Yeast Anticancer Drug Screen. Data for the rad50 strain (AID 155);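 note: 0% = growth of vehicle-only cultures of the same strain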; conditions: S. cerevisiae rad50 strain growth inhibition; at 5.0 µM (retest, dose inferred, filed as 0.5); active compounds read high
Compounds without any hit were thinned out: in the full panel of roughly 79,000, 15% have a hit.
quantity-kind: growth inhibition (%)
Give bare numbers, in %.

Known growth inhibition results, listed for orientation:
molecule="CC1C(NNc2ccccc2)Oc2cc3c(cc2C1c1ccccc1O)OCO3 (centres undefined)" units_text=% measured_value=17
molecule=NC(=O)NN=C(CS)CS units_text=% measured_value=4
molecule="CCN(CC)CC(O)c1ccc2ccc3ccccc3c2c1 (centres undefined)" units_text=% measured_value=-1

The record that follows has no growth inhibition shown yet.
So what's the measured growth inhibition for this one? Cc1ccc(-n2cc(-c3ccc(Cl)cc3)c(C#N)c2N)cc1
13

----------
assay: NCI Yeast Anticancer Drug Screen. Data for the mec2-1 strain (AID 157); conditions: S. cerevisiae mec2-1 strain, at 50.0 µM (retest, dose inferred, filed as 5.0), active compounds read high
Compounds without any hit were thinned out: in the full panel of roughly 79,000, 15% have a hit.
Please mark yes if the recorded growth inhibition is equal to or greater than 40%, and no if it falls below.

Sample answers from the record:
compound="CCOC(=O)C(NC(=O)c1ccccc1)(N1CCN(c2cc3c(cc2F)c(=O)c(C(=O)O)cn3C2CC2)CC1)C(F)(F)F (stereo unspecified)" category=no
compound=Oc1cccc2c(Cl)ccnc12 category=yes
compound=[N-]=N[N+]#I1OC(C(F)(F)F)(C(F)(F)F)c2ccccc21 category=yes
compound=Cc1c(C(=O)C(=O)c2ccccc2)c(C)c(C(=O)C(=O)c2ccccc2)c(C)c1C(=O)C(=O)c1ccccc1 category=yes

Query compound follows.
Record O=C1CSC(/C=C/c2ccccc2)N1c1ccc(-c2ccc(-n3c(-c4ccccc4)nc4ccccc4c3=O)cc2)cc1 (stereo unspecified) ; criterion: growth inhibition no lower than 40%. Met?
yes

----------
assay: NCI Yeast Anticancer Drug Screen. Data for the mec2-1 strain (AID 157); details: S. cerevisiae mec2-1 strain, at 3.7 µM
Compounds without any hit were thinned out: in the full panel of roughly 79,000, 15% have a hit. Active and inactive are the calls of the source. Cut-off read from the data, not from the text of the source: active = growth inhibition above about 70%; inactive = the rest.
The reply should be one of these categories: y (active), n (inactive)

Name the outcome recorded for O=[N+]([O-])c1cc2no[n+]([O-])c2cc1N1CCCCC1 in the assay.
y

Query: recorded result category for CCCCCCCCCCC(=O)Cl in this test
n

Please let me know the test result on file for C/C(=N\NC(=S)SCc1ccccc1)c1ccccn1 .
n

Outcome logged for CC(C)(C)c1nc2c(o1)C(=O)c1ccccc1C2=O in this assay:
n

// outcome(item) with item = CCCCCCCCNC(=O)C1=C(C)NC(C)=C(C(=O)NCCCCCCCC)C1
n

Record request — test call for O=[N+]([O-])CC(SCc1ccccc1)c1ccc2c(c1)OCO2 (stereo not given)
n

Per the records of this test, what outcome belongs to CCOC(=O)c1cc([N+](=O)[O-])cc([N+](=O)[O-])c1Sc1ncnc2nc[nH]c12 ?
n

How was [N-]=N[N+]#I1OC(C(F)(F)F)(C(F)(F)F)c2ccccc21 classified in this test?
y

Any idea what this test logged for CC(=O)OCCOCNC(=S)N/N=C(\C)c1cnccn1 ?
n

Could you kindly confirm the outcome this assay logged for CC(C(=O)N1C(=O)N(C(=O)[C@H](C)C(O)c2ccccc2)[C@H](c2ccccc2)[C@H]1c1ccccc1)[C@@H](O)c1ccccc1 (stereo not given in full) ?
n

Which outcome did this test record for the molecule CC(=O)Nc1ccc(/C=C(\C#N)c2ccc(C)cc2)cc1 ?
n

For this molecule, state the assay outcome: CN(C)C[C@H]1CC[C@@H](CN(C)C)C1=O
n

Name the outcome recorded for COc1ccc(Br)c(C(=O)Sc2nnnn2-c2cccc(Cl)c2)c1 in the assay.
n

Entry CN(C)CCOc1ccc2c(c1)C/C(=C/c1ncc([N+](=O)[O-])n1C)C2=O : call = ?
n

Per the records of this test, what outcome belongs to CC(CC(C)(C)[N+](C)(C)C)[N+](C)(C)C (stereo not given) ?
n
